src = ChEMBL document CHEMBL4483862

Tested on: Plasmodium berghei
Experiment: Luciferase/luciferin-expressing antifolate-resistant parasites were used to infect a culture of HepG2 cells that were pre-incubated with compounds. Infected hepatocytes emit light due to the luciferase reaction. Assay results are presented as the percent inhibition of light emission compared to control. […]
Type: functional
Conditions: sporozoite, HEPG2TOX_HILL_SLOPE 0.743, HEPG2TOX_R_SQUARED 0.939, PBLUC_HILL_SLOPE 0.968, PBLUC_R_SQUARED 0.762, read-out: LUCIFERASE INFECTION ASSAY - IC50
Value kind: pIC50
One number for each entry, as −log10 of the molar value.

Entry under test: CC(Nc1ncnc2sccc12)c1ccc(F)cc1 (stereo unspecified) . Its pIC50 was 6.05

----------
Test system: Plasmodium berghei
Assay: Luciferase/luciferin-expressing antifolate-resistant parasites were used to infect a culture of HepG2 cells that were pre-incubated with compounds. Infected hepatocytes emit light due to the luciferase reaction. Assay results are presented as the percent inhibition of light emission compared to control. […]
Format: functional
Details: sporozoite, FFLUC_HILL_SLOPE 19.4, FFLUC_R_SQUARED 0.522, read-out: LUCIFERASE INFECTION ASSAY - IC50
Value kind: IC50

# Cc1nc(N2N=C3/C(=C/c4ccc(F)cc4)CCCC3C2c2ccc(F)cc2)sc1C(=O)O (stereo unspecified) with Plasmodium berghei: IC50 is > 10 µM

----------
Tested on: Plasmodium berghei
Test: Luciferase/luciferin-expressing antifolate-resistant parasites were used to infect a culture of HepG2 cells that were pre-incubated with compounds. Infected hepatocytes emit light due to the luciferase reaction. Assay results are presented as the percent inhibition of light emission compared to control. […]
Type: functional
Settings: sporozoite, PBLUC_HILL_SLOPE 21.5, PBLUC_R_SQUARED 0.514, read-out: LUCIFERASE INFECTION ASSAY - IC50
Value kind: IC50 (µM)
Give bare numbers, in µM.

# Cc1nc(C(C)(C)C)nc2sc(C(=O)N(C)CC(=O)Nc3cccc(F)c3)c(C)c12 with Plasmodium berghei: IC50 is 3.35

----------
Test system: Plasmodium berghei
Assay: Luciferase/luciferin-expressing antifolate-resistant parasites were used to infect a culture of HepG2 cells that were pre-incubated with compounds. Infected hepatocytes emit light due to the luciferase reaction. Assay results are presented as the percent inhibition of light emission compared to control. […]
Type: functional
Conditions: sporozoite, HEPG2TOX_HILL_SLOPE 3.09, HEPG2TOX_R_SQUARED 0.93, PBLUC_HILL_SLOPE 14.3, PBLUC_R_SQUARED 0.689, read-out: LUCIFERASE INFECTION ASSAY - IC50
Value kind: IC50 (µM)
Numbers only, in µM.

Entry under test: COc1ccc(-[n+]2c(-c3ccc(Br)cc3)cn3c2CCc2ccccc2-3)cc1 . Its IC50 was 3.23

----------
Test system: Plasmodium berghei
Experiment: Luciferase/luciferin-expressing antifolate-resistant parasites were used to infect a culture of HepG2 cells that were pre-incubated with compounds. Infected hepatocytes emit light due to the luciferase reaction. Assay results are presented as the percent inhibition of light emission compared to control. […]
Assay type: functional
Settings: sporozoite, read-out: LUCIFERASE INFECTION ASSAY - IC50
Value kind: IC50

Here is how some compounds turned out for IC50.
{"Compound": "CN(C)C(=O)N1CCC(C(=O)N2CC(=O)N(C3CCCCC3)CC(OCc3ccncc3)C2)CC1 (stereo unspecified)", "IC50": "> 6.8 µM"}
{"Compound": "Cc1nc(-c2ccc3c(c2)CC(=O)N3C)cs1", "IC50": "> 10 µM"}
{"Compound": "CCCC(=O)Nc1ccc(-c2csc(NC(=O)c3cc(C)oc3C)n2)cc1", "IC50": "> 10 µM"}
{"Compound": "N#Cc1cc(NC(=O)c2ccc(Cl)cc2)ccc1Sc1ccccc1", "IC50": "> 9.04 µM"}
{"Compound": "Cc1ccc2nc(NC(=O)COCc3ccccc3)c(C(=O)NC3CCCCC3)n2c1", "IC50": "> 7.85 µM"}

Each compound below has a reported value. Please supply its IC50.
1. COc1cc(OC)c(C(=O)/C=C/c2cccnc2)cc1Cl
2. O=[N+]([O-])c1c[nH]c(-c2csc(-n3nccc3C(F)(F)F)n2)c1

Out:
1: 3.3 µM; 2: 1.82 µM

----------
System: Plasmodium berghei
Assay: Luciferase/luciferin-expressing antifolate-resistant parasites were used to infect a culture of HepG2 cells that were pre-incubated with compounds. Infected hepatocytes emit light due to the luciferase reaction. Assay results are presented as the percent inhibition of light emission compared to control. […]
Format: functional
Settings: sporozoite, HEPG2TOX_HILL_SLOPE 1.44, HEPG2TOX_R_SQUARED 0.96, PBLUC_HILL_SLOPE 2.87, PBLUC_R_SQUARED 0.372, read-out: LUCIFERASE INFECTION ASSAY - IC50
Value kind: pIC50
Give bare numbers, as −log10 of the molar value.

# N#C/C(=N\Nc1ccc(OC(F)(F)F)cc1)C(=O)C1CC1 with Plasmodium berghei: pIC50 is 5.13

----------
Test system: Plasmodium berghei
Test: Luciferase/luciferin-expressing antifolate-resistant parasites were used to infect a culture of HepG2 cells that were pre-incubated with compounds. Infected hepatocytes emit light due to the luciferase reaction. Assay results are presented as the percent inhibition of light emission compared to control. […]
Type: functional
Conditions: sporozoite, PBLUC_HILL_SLOPE 4.75, PBLUC_R_SQUARED 0.191, read-out: LUCIFERASE INFECTION ASSAY - IC50
Value kind: pIC50
One number for each entry, as −log10 of the molar value.

Entry under test: O=C1C(=O)N(CCN2CCOCC2)c2ccc(F)cc21 . Its pIC50 was 4.96

----------
System: Plasmodium berghei
Experiment: Luciferase/luciferin-expressing antifolate-resistant parasites were used to infect a culture of HepG2 cells that were pre-incubated with compounds. Infected hepatocytes emit light due to the luciferase reaction. Assay results are presented as the percent inhibition of light emission compared to control. […]
Type: functional
Conditions: sporozoite, HEPG2TOX_HILL_SLOPE 0.826, HEPG2TOX_R_SQUARED 0.707, read-out: LUCIFERASE INFECTION ASSAY - IC50
Value kind: IC50

Entry under test: COc1ccccc1N1CCN(c2ncnc3sc(C)c(-c4ccc(F)cc4)c23)CC1 . Its IC50 was > 10 µM

----------
Tested on: Plasmodium berghei
Assay: Luciferase/luciferin-expressing antifolate-resistant parasites were used to infect a culture of HepG2 cells that were pre-incubated with compounds. Infected hepatocytes emit light due to the luciferase reaction. Assay results are presented as the percent inhibition of light emission compared to control. […]
Assay type: functional
Settings: sporozoite, PBLUC_HILL_SLOPE 1, PBLUC_R_SQUARED 0.439, read-out: LUCIFERASE INFECTION ASSAY - IC50
Value kind: IC50
Note: a bare number is incomplete; add the unit.

Entry under test: Clc1ccc(-c2csc(-c3nnc4n3-c3ccccc3SC4)n2)s1 . Its IC50 was 6.32 µM

----------
System: Plasmodium berghei
Assay: Luciferase/luciferin-expressing antifolate-resistant parasites were used to infect a culture of HepG2 cells that were pre-incubated with compounds. Infected hepatocytes emit light due to the luciferase reaction. Assay results are presented as the percent inhibition of light emission compared to control. […]
Type: functional
Conditions: sporozoite, PBLUC_HILL_SLOPE 3.27, PBLUC_R_SQUARED 0.275, read-out: LUCIFERASE INFECTION ASSAY - IC50
Value kind: pIC50
Give bare numbers, as −log10 of the molar value.

# NC(Cc1ccc(C(F)(F)F)cc1)c1csc(Nc2cc(Oc3ccccc3)ncn2)n1 (stereo unspecified) with Plasmodium berghei: pIC50 is 5.37

----------
System: Plasmodium berghei
Experiment: Luciferase/luciferin-expressing antifolate-resistant parasites were used to infect a culture of HepG2 cells that were pre-incubated with compounds. Infected hepatocytes emit light due to the luciferase reaction. Assay results are presented as the percent inhibition of light emission compared to control. […]
Format: functional
Conditions: sporozoite, PBLUC_HILL_SLOPE 3.22, PBLUC_R_SQUARED 0.522, read-out: LUCIFERASE INFECTION ASSAY - IC50
Value kind: pIC50
Answers are plain numbers, as −log10 of the molar value.

Entry under test: Fc1ccc(NC(=S)NC2CC3CC2C2C=CCC32)cc1 (stereo unspecified) . Its pIC50 was 5.39

----------
Tested on: Plasmodium berghei
Test: Luciferase/luciferin-expressing antifolate-resistant parasites were used to infect a culture of HepG2 cells that were pre-incubated with compounds. Infected hepatocytes emit light due to the luciferase reaction. Assay results are presented as the percent inhibition of light emission compared to control. […]
Assay type: functional
Details: sporozoite, PBLUC_HILL_SLOPE 18.7, PBLUC_R_SQUARED 0.174, read-out: LUCIFERASE INFECTION ASSAY - IC50
Value kind: pIC50
Numbers only, as −log10 of the molar value.

Entry under test: CC(C)(C)c1ccc(C2Nc3ccccc3C(=O)N2C2CC2)cc1 (stereo unspecified) . Its pIC50 was 5.06
